All figures here come from the MegaScale stability set (Tsuboyama et al. 2023).

B1: EEHEE_rd3_1049 (parent)
chain: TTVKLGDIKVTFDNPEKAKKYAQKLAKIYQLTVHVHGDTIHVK

- Variants of: B1
- protocol-text: folding stability dG (cDNA display proteolysis); higher = more stable
- stated-conditions: PBS, room temperature
Classification field: Met = folding stability dG at or over 2 kcal/mol; Not met = folding stability dG under 2 kcal/mol.

Entry H34C : is its folding stability dG no less than 2 kcal/mol?
Met

Do the same for D38W please
Not met

Turning now to a further record.
Entry N14R : is its folding stability dG no less than 2 kcal/mol?
Not met
